Target: 5-hydroxytryptamine receptor 7 (Homo sapiens)
Sequence (P34969 whole entry): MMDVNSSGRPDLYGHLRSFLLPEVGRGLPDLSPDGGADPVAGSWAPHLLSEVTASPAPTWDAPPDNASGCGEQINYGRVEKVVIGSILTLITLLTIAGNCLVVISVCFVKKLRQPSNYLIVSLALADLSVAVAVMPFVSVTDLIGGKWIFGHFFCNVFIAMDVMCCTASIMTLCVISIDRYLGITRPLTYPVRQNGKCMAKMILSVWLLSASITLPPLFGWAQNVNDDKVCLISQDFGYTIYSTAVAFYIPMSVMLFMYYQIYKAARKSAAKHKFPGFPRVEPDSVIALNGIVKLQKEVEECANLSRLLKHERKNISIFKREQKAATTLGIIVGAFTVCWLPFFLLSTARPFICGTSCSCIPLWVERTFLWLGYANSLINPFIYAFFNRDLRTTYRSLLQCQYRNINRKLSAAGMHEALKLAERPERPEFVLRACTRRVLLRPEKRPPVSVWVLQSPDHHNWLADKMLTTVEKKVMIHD
pKi overview
Reminder that pKi means the negative base-10 logarithm of the concentration expressed in mol/L.

[[record]]
compound = "O=C1Nc2cccc3c2C1(CCCCN1CCN(c2ccccc2)CC1)CCC3 (racemic)"
readout_label = "pKi"
endpoint_value = 8.67


API: the following record is the query input.
// query Consider the compound shown here: O=C1Nc2cccc3c2C1(CCCCN1CC=C(c2ccccc2)CC1)CCC3 (racemic) What is its recorded pKi?
// result 8.48
